Hello, the source for this data is ChEMBL document CHEMBL1145962, in case you need it.

Quick list: MIC per entry.
system: Sporothrix schenckii; assay: In vitro antifungal activity against Sporothrix schenck ii; assay type: functional
Write down the numeric answer in µg/mL and omit the unit.

{"COMPOUND": "CC(C)=CCCC1(C)CC(O)c2ccc(O)cc2O1 (stereo unspecified)", "MIC [µg/mL]": 80}
{"COMPOUND": "CC(C)=CCCC1(C)CC(=O)c2ccc(O)cc2O1 (stereo unspecified)", "MIC [µg/mL]": 160}
{"COMPOUND": "COc1ccc2c(c1)OC(C)(CCC=C(C)C)CC2=O (stereo unspecified)", "MIC [µg/mL]": 320}
{"COMPOUND": "CCCCCCCC1(C)CC(=O)c2ccc(OC)cc2O1 (stereo unspecified)", "MIC [µg/mL]": 40}
{"COMPOUND": "COc1ccc2c(c1)OC(C)(CCC=C(C)C)CC2O (stereo unspecified)", "MIC [µg/mL]": 320}
{"COMPOUND": "CCCCCCCC1(C)CC(O)c2ccc(O)cc2O1 (stereo unspecified)", "MIC [µg/mL]": 40}
{"COMPOUND": "CCCCCCCC1(C)C/C(=N/O)c2ccc(O)cc2O1 (stereo unspecified)", "MIC [µg/mL]": 10}
{"COMPOUND": "CCCCCC1(C)CC(O)c2ccc(O)cc2O1 (stereo unspecified)", "MIC [µg/mL]": 20}
{"COMPOUND": "CC(C)CC1(C)CC(=O)c2ccc(O)cc2O1 (stereo unspecified)", "MIC [µg/mL]": 320}
{"COMPOUND": "CCCCCCCC1(C)CC(O)c2ccc(OC)cc2O1 (stereo unspecified)", "MIC [µg/mL]": 40}

State its MIC for this compound: OC(Cn1cncn1)(Cn1cncn1)c1ccc(F)cc1F [FLUCONAZOLE]
0.25

State its MIC for this compound: CCCCCCCC1(C)CC(=O)c2ccc(O)cc2O1 (stereo unspecified)
40

State its MIC for this compound: COc1ccc2c(c1)OC(C)(CCC=C(C)C)C=C2 (stereo unspecified)
320

State its MIC for this compound: CCCCCC1(C)CC(=O)c2ccc(O)cc2O1 (stereo unspecified)
80

State its MIC for this compound: CCCCCC1(C)C/C(=N/O)c2ccc(O)cc2O1 (stereo unspecified)
40

State its MIC for this compound: CC(C)=CCCC1(C)C/C(=N/O)c2ccc(O)cc2O1 (stereo unspecified)
40
